- ASSAYED TARGET: T1, HER3 (human, UniProt P21860 20-643, limits assumed)
- T1 construct: also called HER3抗原; HER3蛋白
- T1 sequence (P21860 20-643 limits assumed): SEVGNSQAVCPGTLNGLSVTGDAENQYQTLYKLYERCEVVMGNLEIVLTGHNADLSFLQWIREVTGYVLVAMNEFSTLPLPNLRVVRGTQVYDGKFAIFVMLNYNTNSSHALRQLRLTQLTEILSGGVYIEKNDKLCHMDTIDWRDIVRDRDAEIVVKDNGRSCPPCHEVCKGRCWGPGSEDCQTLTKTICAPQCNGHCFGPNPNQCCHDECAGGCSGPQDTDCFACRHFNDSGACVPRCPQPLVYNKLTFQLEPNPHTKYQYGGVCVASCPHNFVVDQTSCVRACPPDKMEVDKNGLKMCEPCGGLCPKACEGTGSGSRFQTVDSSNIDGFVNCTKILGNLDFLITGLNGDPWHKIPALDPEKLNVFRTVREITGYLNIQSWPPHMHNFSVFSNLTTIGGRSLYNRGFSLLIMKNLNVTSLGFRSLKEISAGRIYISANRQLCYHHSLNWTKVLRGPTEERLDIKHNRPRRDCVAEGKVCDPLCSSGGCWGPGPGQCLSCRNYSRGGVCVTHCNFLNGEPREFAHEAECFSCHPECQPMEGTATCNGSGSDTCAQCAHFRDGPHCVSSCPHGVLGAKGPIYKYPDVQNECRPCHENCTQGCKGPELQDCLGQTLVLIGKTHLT
- PROTOCOL TEXT: ProteOn XPR36 Protein Interaction Array System (SPR)
OBSERVED PROPERTY: pKd
Would you please state pKd, meaning minus log10 of the concentration in mol/L, as a bare number?

Inquiry: Field request: pKd | item: HER3鼠源单克隆抗体1044 (antibody, V domains shown, Mouse monoclonal antibody from hybridoma ascites, purified on protein G; also called HER3抗体1044) VH: EVQLQQSGTELMKPGASVKISCKATGGTFSNYWIDWVKQRPGHGLEWIGEILPGSGGTDYNEKFKGKATFTADTSSNTAYMQLSSLTSEDSAVYYCARDDYDVFAYWGQGTLVTVSS VL: DIVMTQAAFSNPVTLGTSASISCRSSKSLLHSNGITYLYWYLQKPGQSPQLLIYQMSNLASGVPDRFSSSGSGTDFTLRISRVEAEDVGVYYCAQNLELPWTFGGGTKLEIKR
Reply text: 9.28

Others:
Inquiry: Look at this binder and give its reported pKd. HER3鼠源单克隆抗体1050 (antibody, V domains shown, Mouse monoclonal antibody from hybridoma ascites, purified on protein G; also called HER3抗体1050) VH: QVQLQQSGPELVKPGASVKISCKASGYSFTSYYIHWVKQRPGQGLEWIGWIFPGSGHTKCNENFKAKATLTADTSSSTAYMQLSSLTSEDSAVYFCARSRDYYGSNAVDYWGQGTSVTVSS VL: DIVMTQSPSSLTVTAGEKVTMSCKSSQSLLNSGNQKNYLTWYQQKPGQPPKLLIYWASTRESGVPDRFSGSGSGTDFTLTISSVQAEDLAVYYCQNDYSYPYTFGGGTKLEIKR
Reply text: 8.23

Inquiry: Give the measured pKd of HER3鼠源单克隆抗体993 (antibody, V domains shown, Mouse monoclonal antibody from hybridoma ascites, purified on protein G; also called HER3抗体993) VH: EVKLVESGGGLVKPGGSLKLSCAASGFTFSSYSLSWVRQTPEKRLEWVASITFGGTAYYSDSVKGRFTISRDNARNILYLQMSSLKSEDTAMYYCVRGDGYEDPMDYWGQGTSVTVSS VL: DIVMTQTTVSLAVSLGQRATISCRASESVDSYGKSFMHWYQQKPGQPPKLLIYRASNLESGIPARFSGSGSRTDFTLTINPVEADDVSTYYCQQSNEDPYTFGGGTKLEIR .
Reply text: 9.78

Inquiry: Look up pKd: HER3鼠源单克隆抗体927 (antibody, V domains shown, Mouse monoclonal antibody from hybridoma ascites, purified on protein G; also called HER3抗体927) VH: EVQLQQSGPELVKPGASVKISCKASGYSFTSYYIHWVKQRPGQGLEWIGWIFPRSGHTNYNEKFKGKATLTADTSSSTAYMQVSSLTSEDSAVYFCARSRDYYGTNAMDYWGQGTSVTVSS VL: DIVMTQSPSSLTVTAGEKVTMSCKSSQSLFNSGNQKNYLTWYQQKPGQPPKLLIYWASTRESGVPDRFTGSGSGTDFTLTISSVQAEDLAVYYCQNDYSYPYTFGGGTKLEIKR
Reply text: 8.38
